System: Human colon carcinoma cells HCT-116
test details: Cytotoxic activity on culture of human colon carcinoma cells HCT-116 (Alamar Blue)
Assay type: cell-based
test context: Homo sapiens, HCT-116, 72 h, HCT-116 cells, 72 hours after addition of compounds, Alamar Blue viability
Experimental: The activity of the compounds as histone deacetylase (HDAC) inhibitors was measured using an in vitro acetylation assay. The compounds were then evaluated as inhibitors of proliferation of human tumor cell cultures. 24 hours after seeding, the compounds at different concentrations are added. […] 72 hours after addition of the compounds, cell viability is measured by means of the dye Alamar Blue.
assay endpoint: IC50 (nM)
Answers are plain numbers, in nM.

Please review the following examples before continuing.
N[C@@H](CC(=O)N1CCC(CCCC(=O)NO)CC1)c1ccc2ccccc2c1 [Ex 109] | 68
Cc1ccc(CNC(=O)N2CCC(CCCC(=O)NO)CC2)cc1 [Ex 52] | 500

Let's switch to this compound now.
query: Print Human colon carcinoma cells HCT-116 IC50 for O=C(CCCC1CCN(C(=O)[C@H](CO)NC(=O)c2nccc3ccccc23)CC1)NO [Ex 122] .
result: 420
